System: AncSZ;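 further: 11-residue human phosphosite peptides and single-mutation variants displayed on the E. coli surface, counted by deep sequencing, each peptide's frequency after selection divided by its frequency in the unselected input library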;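 further: frequency after pTyr selection over input frequency; kinase dosed for 20-30% of maximal phosphorylation in three min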
Assay: phosphorylation enrichment, bacterial display (enrichment ratio); higher = better substrate or ligand; peptides without Tyr show the background
MEASURE: phosphorylation enrichment

> print(dat)
                             seq.text  system.under.test  endpoint.result
 1         FPKARYHWLVL [APTX_Y214_YF]              AncSZ             1.03
 2     VPFAQYLAMNK [HARS1_Y138_R137Q]              AncSZ            0.685
 3      LRAGVYREKDQ [DNM2_Y626_P627R]              AncSZ            0.882
 4         SKDQIYPMKLK [RANBP17_Y823]              AncSZ            0.451
 5     VAMDDYLKNVV [LRRK2_Y707_M712V]              AncSZ            0.872
 6      TEQDPSNNIVR [MMUT_Y364_Y364S]              AncSZ            0.824
 7            DSEIRYLSADS [TTF1_Y476]              AncSZ            0.964
 8     SKNSKYNAGST [PSEN1_Y315_E318G]              AncSZ            0.535
 9         AEEEIYGIFGA [SRCtide_2014]              AncSZ              2.1
10     SIKHKYVTALY [KCNH2_Y611_D609H]              AncSZ            0.537
11          KAIDMYLMGCF [GABRB2_Y308]              AncSZ             1.27
12             RLRKYYLGKYL [KLB_Y906]              AncSZ            0.601
13           ICTVDYLLRLQ [RYR1_Y3921]              AncSZ             1.21
14            IQVDAYFSPIH [ADSL_Y432]              AncSZ             1.17
15  EFITRYIDSLK [PSMA7_Y110_A112D_YF]              AncSZ            0.785
16     LFEDHYLLGTS [ASS1_Y87_R86H_YF]              AncSZ             1.27
17          NLSVRYDSSLK [ABCC8_Y1353]              AncSZ             0.68
18   TVLGEYASPKG [CYP24A1_Y407_L409S]              AncSZ            0.733
19             QLRPGYIPIPV [BAG3_Y93]              AncSZ            0.953
20  RGFRVCFTPDS [PTPRF_Y450_Y450C_YF]              AncSZ             1.09
21           VGQRPYQPLPE [REEP3_Y170]              AncSZ            0.617
22             HIPFRYPKEFQ [IDS_Y234]              AncSZ            0.826
23     MKGEYYRYLAE [YWHAG_Y131_D129E]              AncSZ             1.12
24       TFINKYQGKLF [HGD_Y249_V245F]              AncSZ            0.566
25  FMFKVYSDPQP [FGFR1_Y280_C277Y_YF]              AncSZ             1.54
26      ERLWDCGMSSS [F8_Y1728_Y1728C]              AncSZ            0.803
27     ATGMEYLASQK [FGFR2_Y616_R612T]              AncSZ            0.736
28     DEEPPHRGPFC [SASH1_Y551_Y551H]              AncSZ             1.01
29     ELQGTYTSLQQ [KIF3C_Y574_R571Q]              AncSZ            0.984
30      NHQFDYTFDWT [CSNK1A1_Y294_YF]              AncSZ             1.23
31      HSDYQYGQRSQ [PKP2_Y168_S169G]              AncSZ            0.618
32           KLKEKYEKDIA [HMGB1_Y155]              AncSZ            0.704
33             VDLSKYITTIA [FAS_Y232]              AncSZ            0.657
34          CEHRGYLFLAI [TEK_Y897_YF]              AncSZ            0.951
35             NVTGHYISPFH [PPA2_Y59]              AncSZ            0.552
36   YNNYGYGSDGF [HNRNPH3_Y161_N163S]              AncSZ            0.735
37        PVDVAYRRGFF [PLEC_Y2967_YF]              AncSZ            0.909
38          LQFKNYQQLFD [MAN2A1_Y442]              AncSZ            0.944
39    AVRFIYTIDGS [DCX_Y105_G100A_YF]              AncSZ             1.32
40  VIEFSYTSADG [DHCR7_Y382_C380Y_YF]              AncSZ            0.944
41     CFTGKYTLPPG [HSPB1_Y142_R140G]              AncSZ             1.09
42           TRNRDYDDIDD [TTYH2_Y424]              AncSZ             1.02
43      SVTCTYSPVLN [TP53_Y126_A129V]              AncSZ             1.37
44    QITQVCGFYDE [PPP2CA_Y127_Y127C]              AncSZ             1.21
45     KVPCHYDDPGK [FOXG1_Y246_R244C]              AncSZ            0.827
46           FIGRIYLYLTK [GARS1_Y414]              AncSZ             1.64
47       WASQRYGRELR [BAD_Y110_A107S]              AncSZ            0.621
48  LVRPPYSFLAL [FOXI1_Y126_S129L_YF]              AncSZ            0.683
49      RLSARYFQGDL [PDK3_Y337_Y334S]              AncSZ            0.563
50     YISLIYTNYEV [GSTP1_Y109_A114V]              AncSZ             1.82
51         SSFSGYIMMPN [LEF1_Y114_YF]              AncSZ             1.02
52        ARQEEYSAMRD [KRAS_Y64_G60R]              AncSZ            0.962
53        RGFRVYFTPDS [PTPRF_Y450_YF]              AncSZ             1.31
54     LLTALYFISWG [KCNH2_Y780_R784W]              AncSZ             1.51
55     FIRRDYEACKA [BBS4_Y48_K46R_YF]              AncSZ            0.761
56            DPLLTYRFPPK [LMNA_Y481]              AncSZ            0.597
57          RSPLRYTSILT [OR51B6_Y130]              AncSZ            0.679
58           LFQAKYQIRYR [CRLF1_Y272]              AncSZ             1.07
